TARGET OF ASSAY: human TRPV4 (Homo sapiens)
Construct: expressed in transfected cells; host or cells: BHK/AC9 cells transduced with BacMam virus
Sequence (Q9HBA0 whole entry): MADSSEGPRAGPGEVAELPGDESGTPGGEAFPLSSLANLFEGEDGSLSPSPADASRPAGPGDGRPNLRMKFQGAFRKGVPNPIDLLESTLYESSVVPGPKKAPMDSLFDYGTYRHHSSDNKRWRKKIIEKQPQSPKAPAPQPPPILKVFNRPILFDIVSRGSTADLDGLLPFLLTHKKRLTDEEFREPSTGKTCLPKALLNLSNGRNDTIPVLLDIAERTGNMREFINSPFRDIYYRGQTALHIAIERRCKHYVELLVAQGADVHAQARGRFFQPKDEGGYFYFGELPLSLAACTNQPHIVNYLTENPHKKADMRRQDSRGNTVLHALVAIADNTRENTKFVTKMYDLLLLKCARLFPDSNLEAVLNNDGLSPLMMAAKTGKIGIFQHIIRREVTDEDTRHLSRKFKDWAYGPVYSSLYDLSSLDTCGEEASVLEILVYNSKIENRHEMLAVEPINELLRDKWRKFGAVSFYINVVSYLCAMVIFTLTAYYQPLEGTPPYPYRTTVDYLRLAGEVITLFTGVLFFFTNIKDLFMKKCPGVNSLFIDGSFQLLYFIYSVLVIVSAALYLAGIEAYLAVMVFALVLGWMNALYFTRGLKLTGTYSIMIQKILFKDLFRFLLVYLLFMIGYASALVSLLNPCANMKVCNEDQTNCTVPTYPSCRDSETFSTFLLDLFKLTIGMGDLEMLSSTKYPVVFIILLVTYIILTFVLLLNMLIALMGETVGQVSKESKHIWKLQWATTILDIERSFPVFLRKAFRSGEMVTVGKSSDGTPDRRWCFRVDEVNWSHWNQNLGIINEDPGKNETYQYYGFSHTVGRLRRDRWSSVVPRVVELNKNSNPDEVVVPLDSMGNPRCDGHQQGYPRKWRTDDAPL
ASSAY SUMMARY: FLIPR assay for hTRPV4 expressed in BHK cells: inhibition of Agonist Compound-induced calcium signal
Format: cell-based
EXPERIMENTAL SETUP: hTRPV4 in BHK/AC9 cells, FLIPR calcium signal, agonist at EC80; reported as range class; read-out: IC50
pIC50: −log10 of the molar value.
Reported pIC50 values for a set of compounds

Some compounds with known pIC50 results, for comparison:
N#Cc1ccc(O[C@H]2CN(S(=O)(=O)c3ccc(Cl)cc3C#N)C[C@@]23CNC(=O)O3)cc1F    7.00 to 8.00
Cc1cc(C#N)ccc1S(=O)(=O)N1C[C@H](Oc2ccc(C#N)c(F)c2)[C@](O)(CO)C1    8.00 to 10.00
N#Cc1ccc2cc(O[C@H]3CN(S(=O)(=O)c4ccc(C(F)(F)F)cc4C#N)C[C@@]3(O)CO)ccc2c1    7.00 to 8.00

Lab note: need pIC50 with human TRPV4 (Homo sapiens) for entry N#Cc1ccc(S(=O)(=O)N2C[C@H](Oc3ccc(Cl)cc3)[C@](O)(CO)C2)c(Cl)c1 , please look it up.
8.00 to 10.00

Lab note: need pIC50 with human TRPV4 (Homo sapiens) for entry N#Cc1ccc(O[C@H]2CN(S(=O)(=O)c3ccc(C#Cc4ccccc4)cn3)C[C@@]2(O)CO)cc1F , please look it up.
8.00 to 10.00

Lab note: need pIC50 with human TRPV4 (Homo sapiens) for entry N#Cc1ccc(O[C@H]2CN(S(=O)(=O)c3ccc(OC(F)(F)F)cn3)C[C@@]2(O)CO)cc1F , please look it up.
6.00 to 7.00

Lab note: need pIC50 with human TRPV4 (Homo sapiens) for entry C[C@@H](O)[C@]1(O)CN(S(=O)(=O)c2ccc(C(F)(F)F)cc2C#N)C[C@@H]1Oc1ccc(C#N)c(F)c1 , please look it up.
8.00 to 10.00

* * *

TARGET OF ASSAY: human TRPV4 (Homo sapiens)
Construct: expressed in transfected cells; host or cells: BHK/AC9 cells transduced with BacMam virus
ASSAY SUMMARY: FLIPR assay for hTRPV4 expressed in BHK cells: inhibition of Agonist Compound-induced calcium signal
Assay type: cell-based
EXPERIMENTAL SETUP: hTRPV4 in BHK/AC9 cells, FLIPR calcium signal, agonist at EC80; reported as range class; read-out: IC50
pIC50: −log10 of the molar value.
Reported pIC50 values for a set of molecules

Some molecules with known pIC50 results, for comparison:
C#Cc1ccc(S(=O)(=O)N2C[C@H](Oc3ccc(C#N)c(F)c3)[C@](O)(CO)C2)c(C#N)c1    8.00 to 10.00
N#Cc1ccc(O[C@H]2CN(S(=O)(=O)c3ccc(OC(F)(F)F)cc3C#N)C[C@@]2(O)CO)cc1F    8.00 to 10.00
N#Cc1ccc(O[C@H]2CN(S(=O)(=O)c3ccc(OC(F)(F)F)cn3)C[C@@]2(O)CN)cc1F    7.00 to 8.00

Moving on to another molecule below.
Fill in the blank: the reported pIC50 of N#Cc1ccc(O[C@H]2CN(S(=O)(=O)c3ccc(C(F)(F)F)cc3C#N)C[C@@]2(O)CO)c(OCc2ccccc2)c1 is ____.
8.00 to 10.00
